tested on: NCI-H226 lung; experiment: NCI tumour cell line growth inhibition, 48 h
measured parameter: TGI (µM)
State the answer as a number, implicitly in µM.

Some solved cases for reference:
{"columns": ["compound", "units", "TGI"],
 "data": [
  ["COc1ccc(-c2cn[nH]c2-c2cc(OC)c3c(c2)OCCO3)cc1", "µM", 23.4],
  ["CCOC(=O)CC1NC(=O)CS1 (centres undefined)", "µM", 48.1],
  ["NC(=O)c1ccc(C2C3=C(CCCC3=O)OC3=C2C(=O)c2ccccc2C3=O)cc1 (centres undefined)", "µM", 3.96]
]}

Reported NCI-H226 lung TGI for item "C[C@]12CC[C@H](O)CC1=CC[C@@H]1[C@@H]2CC[C@]2(C)/C(=N/OCCN3CCCC3)CC[C@@H]12" was 30

Here COc1cc(S(=O)(=O)Nc2ccc(C3=NNC(c4ccccc4)C3)cc2)ccc1F (centres undefined) was tested on NCI-H226 lung, and its TGI came to 61.3

TGI of "CC(C)Oc1cc(O)c2c(c1)OCC=C2CCC(=O)O" , assay on NCI-H226 lung, is 69.8

Form: item COc1ccc(C2CC(n3nnnc3-c3ccccc3)=NN2)cc1 (centres undefined) ; test system NCI-H226 lung; TGI: 22.8

Query "CSc1cc(N)ccc1N=Nc1ccc(S(N)(=O)=O)cc1" on NCI-H226 lung; TGI returned: 50.4

Lab entry: NCI-H226 lung assay, compound "Oc1ccccc1-c1nc2c3ccccc3c3ccccc3c2[nH]1" , TGI = 20.9

====

tested on: K-562 leukemia; assay: NCI tumour cell line growth inhibition, 48 h
measured parameter: TGI

Some solved cases for reference:
{"columns": ["compound", "TGI"],
 "data": [
  ["CC1(COS(=O)(=O)OCC2(C)COS(=O)(=O)OC2)COS(=O)(=O)OC1", "> 100 µM"],
  ["COc1ccc(-c2cn[nH]c2-c2cc(OC)c3c(c2)OCCO3)cc1", "> 100 µM"],
  ["O=c1[nH]c(Nc2cccc(Cl)c2)nc2nc[nH]c12", "> 100 µM"],
  ["COc1ccc(/C=C2\\N=C(c3ccccc3)N(C3Nc4cc5c(cc4S3)NC(N3C(=O)/C(=C/c4ccc(OC)cc4)N=C3c3ccccc3)S5)C2=O)cc1 (stereo not given)", "> 100 µM"],
  ["COC(=O)C1=C(C(=O)OC)SC(=C(Cl)C(=S)Sc2ccccc2N)S1", "> 100 µM"],
  ["COC(=O)C1(Cc2ccccc2)Cc2ccccc2C1", "52.3 µM"],
  ["CC(=O)Nc1ccc(S(=O)(=O)NNC(=O)c2cccnc2Nc2ccc(Cl)cc2)cc1", "> 100 µM"],
  ["O=C(N[C@H]1c2ccsc2/C(=N/O)[C@H]1O)C(F)(F)F", "> 100 µM"]
]}

Result for "CSC1=NS(=O)(=O)c2cc(C(=O)NN(C)C(=O)c3cc4c(cc3Cl)SC(SC)=NS4(=O)=O)c(Cl)cc2S1" , tested on K-562 leukemia, TGI: > 10 µM

====

Property: TGI; scope: individual compounds
test system: NCI-H460 lung; experiment: NCI tumour cell line growth inhibition, 48 h

{"columns": ["compound", "target under test", "TGI"],
 "data": [
  ["NNC(=S)N1CCN(C(=S)NN)CC1", "NCI-H460 lung", "> 100 µM"]
]}

Value of measured TGI for the entry CN(Cc1cnc2nc(N)nc(N)c2n1)c1ccc(C(=O)NC(CCC(=O)NC(P(=O)(O)O)P(=O)(O)O)C(=O)O)cc1 (centres undefined) : > 100 µM

O=C1Nc2cccc3cc(NCC(O)CCl)cc1c23 (centres undefined) yielded TGI of > 100 µM

TGI in this record for "O=c1ccc(=O)c2c(=O)c3ccccc3c(=O)c1=2" : > 100 µM

====

Listed here are compounds together with their documented TGI.
tested on: SN12C renal; test: NCI tumour cell line growth inhibition, 48 h

{"columns": ["smiles notation", "target under test", "TGI"],
 "data": [
  ["C1=CC=C2NCCOCCNC3=CC=CC=CC3=NCCOCCN=C2C=C1", "SN12C renal", "> 100 µM"],
  ["C#CCn1c(=O)c(C#N)c(O)c2cc3ccccc3nc21", "SN12C renal", "> 100 µM"],
  ["COc1cc2c(cc1OC)-c1c3c(cc4c1[C@@H](C2)N(C)CC4)OCO3", "SN12C renal", "39 µM"],
  ["CN(C)CCNc1ncnc2nc(-c3ccc4ccccc4c3)[nH]c12", "SN12C renal", "> 100 µM"],
  ["CSc1c(C#N)c2n(c3ccccc13)c1ccccc1[n+]2C", "SN12C renal", "53.1 µM"]
]}

Okay, next one:
Tested on SN12C renal: "Cc1nn(-c2ccccc2)c(-c2ccccc2[N+](=O)[O-])c1CC#N" . Observed TGI: > 100 µM

====

test system: KM12 colon; assay: NCI tumour cell line growth inhibition, 48 h; in the data active means GI50 below about 0.43 µM; inactive means the rest
Form entry, call: pick from active, inactive

Record excerpt, results attached:
{"columns": ["compound", "label class"],
 "data": [
  ["COC(=O)C1=C(C(=O)OC)SC(=C(Cl)C(=S)Sc2ccccc2N)S1", "inactive"],
  ["CC(C)[C@H]1C(=O)N[C@@H](CCCN=C(N)N)C(=O)NCC(=O)N[C@@H](CC(=O)O)C(=O)N[C@H](Cc2ccccc2)C(=O)N1C", "inactive"],
  ["O=C1CCCN1CC#CCN1CCCC1", "inactive"],
  ["O=[N+]([O-])c1ccc2c(c1)[O][Sn]([I])([I])[O]2", "inactive"],
  ["FCc1ncc(-c2ccc(C(F)(F)F)cc2)c(NC2CCCCCC2)n1", "inactive"],
  ["CCN(CC)CCCC(C)Nc1c2ccc(C)cc2nc2ccc(OC)cc12 (stereo not given)", "inactive"]
]}

Just curious, what result did "Cc1cc(-c2nnc3n2CCCCC3)c(C)n1-c1ccc(Cl)c(Cl)c1" get here?
inactive

Tell me the recorded outcome of this test for "Cc1c2ccc(N(C)c3ccnc(Nc4cccc(S(N)(=O)=O)c4)n3)cc2nn1C" .
inactive

Record lookup: outcome of this test for "COc1cc(/C=C2/N=C(c3ccccc3)N(C3=NNC4(C(=O)N3)c3ccccc3-c3ccccc34)NC2=O)ccc1O" ?
inactive

Recorded test outcome, item "COc1ccc(CN2c3ccccc3CCc3ccccc32)cc1F"
active

====

tested on: NCI-H522 lung; assay: NCI tumour cell line growth inhibition, 48 h
measured parameter: TGI (µM)
Report only the number, with the unit µM understood.

{"columns": ["smiles notation", "TGI [µM]"],
 "data": [
  ["CSc1ccc(/C=C2\\C=C(CC(=O)NCc3ccc(C(=O)c4ccccc4)cc3)c3cc(F)ccc32)cc1", 0.211],
  ["COc1c(C)c(OC)c2c(c1O)[C@@H]1[C@@H]3Cc4c(OC)c(C)c(OC)c(O)c4[C@H](CNC(=O)c4cnc5ccccc5n4)N3[C@@H](C#N)[C@H](C2)N1C", 0.00516],
  ["Cc1cc(C)n(CN(Cn2nc(C)cc2C)C2CCCCC2)n1", 43.8],
  ["Cc1c2c(OCCCCN3CCN(c4ncccn4)CC3)nn(C)c(=O)c2c(C)n1-c1ccccc1", 38.2],
  ["COc1cc2c(/C=C3/C(=O)N(c4ccccc4)c4ccccc43)c(Cl)[nH]c2cc1C", 6.24],
  ["Cc1cc(-c2nnc3n2CCCCC3)c(C)n1-c1ccc(Cl)c(Cl)c1", 28.3]
]}

With those in mind, consider the next compound.
Given item "O=c1oc2ccc(Cl)cc2cc1-c1cn2cc(Cl)ccc2n1" , the value recorded as its TGI is 11.2

====

system: EKVX NSCLC; assay: NCI tumour cell line growth inhibition, 48 h; in the data active = GI50 below about 0.43 µM; inactive = the rest
Write down the outcome that applies. Available outcomes: active, inactive

Would you please look over these solved cases?
{"columns": ["compound", "label class"],
 "data": [
  ["Oc1ccccc1-c1nc2c3ccccc3c3ccccc3c2[nH]1", "inactive"],
  ["COc1cc(/C=C2/N=C(c3ccccc3)N(C3=NNC4(C(=O)N3)c3ccccc3-c3ccccc34)NC2=O)ccc1O", "inactive"],
  ["O=[N+]([O-])c1ccc2c(c1)[O][Sn]([I])([I])[O]2", "inactive"]
]}

Could you check what this test reported for "CC(C)(C)NC(=O)[C@H]1C[C@H]2CCCC[C@H]2CN1C[C@@H](O)[C@H](Cc1ccccc1)NC(=O)[C@H](CC(N)=O)NC(=O)c1ccc2ccccc2n1" ?
inactive

How was NC(=O)c1ccc(C2C3=C(CCCC3=O)OC3=C2C(=O)c2ccccc2C3=O)cc1 (configuration not stated) classified in this test?
inactive

Hi, do you know how "COC(=O)CCC1=C(C)/C(=C/c2[nH]c(-c3ccc[nH]3)cc2OC)N=C1C" came out in this test?
inactive

Short answer needed: outcome of this test for CCCCCCN(CCCCCC)CC(O)c1ccc2c3c(cccc13)CC2 (configuration not stated) ?
inactive

What is the recorded call for this compound in the test? "N.N.N.N.N.N.O=N[O-].[Br-].[Co+3].[Co+3].[OH3+].[OH3+]"
inactive

Dear colleague, could you share the recorded outcome for "COc1cc(S(C)(=O)=O)ccc1Nc1nc2ccc(-c3ccc(NC(=O)[C@H](C)c4ccc(F)cc4)cc3)cn2n1" when you have a moment?
inactive
